measuredEndpoint: melting point

Field: example entries. Status: answers known.
>  <compound>
O=C1C=C(NC(=O)C(=O)c2cn(Cc3ccc4ccccc4c3)c3ccccc23)CO1

>  <melting point>
283 to 285 °C

$$$$
>  <compound>
CCc1nc(/C=C\c2cn(-c3ccccc3)nc2OCc2ccc(OCc3nc(-c4ccco4)oc3C)c(OC)c2)cs1

>  <melting point>
108 to 109 °C

$$$$
>  <compound>
CN(C)C(=O)c1noc(-c2cnccc2C(F)(F)F)n1

>  <melting point>
52 to 54 °C

$$$$

Enquiry: Supply melting point value. Item: "Nc1ccc(C23CC(C2)C(=O)N(CC2CCCCC2)C3=O)cc1"
Return: 140 to 146 °C

Enquiry: Read the entry "CC(C)(OCc1n[nH]c2ccccc12)C(=O)O" and write its reported melting point.
Return: 135 to 137 °C

Enquiry: Please report the measured melting point for CCOC(=O)C1=C(C)Nc2nc(N3CCOCC3)nc(N3CCOCC3)c2C1c1ccccn1 (stereo not drawn)
Return: 226 °C

Enquiry: Return melting point (reported value) for this compound: "CNC(=O)C(c1ccc(F)cc1)c1ccc(F)cc1"
Return: 179 to 180 °C

Enquiry: Quote melting point reported for "Cc1cc(-c2ccc(Cl)c(Cl)c2)nc(-c2ccnc(-c3ccc(S(N)(=O)=O)s3)c2)n1" please.
Return: 267 °C
